system: C3A; test: Cell panel screen (CellTiter-Glo); assay type: cell-based, human; conditions: Homo sapiens; C3A (Liver), 20 micromolar, 72 hrs; read-out: Percent Inhibition

{"columns": ["compound", "unit_annotation", "inhibition at 20 µM"],
 "data": [
  ["CC(C)=CCC/C(C)=C/Cc1c(O)c(CC=C(C)C)c2c(c1O)C(=O)C1=C[C@@H]3C[C@H]4C(C)(C)O[C@@](C/C=C(\\C)C=O)(C3=O)[C@@]14O2", "%", 97],
  ["CC(C)=CCC/C(C)=C/Cc1c(O)c(CC=C(C)C)c2c(c1O)C(=O)C1=C[C@@H]3C[C@H]4C(C)(C)O[C@@](C/C=C(\\C)C(=O)O)(C3=O)[C@@]14O2", "%", 99],
  ["CC(C)=CCC[C@@]1(C)C=Cc2c(O)c3c(c(CCC(C)(C)O)c2O1)O[C@]12C(=C[C@@H]4C[C@H]1C(C)(C)O[C@@]2(C/C=C(/C)C(=O)O)C4=O)C3=O [GB39, 33-hydroxyepigambogic acid]", "%", 99],
  ["CC(C)=CCc1c(O)cc2oc3c(CC=C(C)C)c(O)c(O)c(CC=C(C)C)c3c(=O)c2c1O", "%", 90],
  ["CC(C)=CCC[C@@]1(C)C=Cc2c(O)c3c(c(C/C=C(\\C)CO)c2O1)O[C@]12C(=C[C@@H]4C[C@H]1C(C)(C)O[C@@]2(C/C=C(/C)C(=O)O)C4=O)C3=O [GB40, 35-hydroxyepigambogic acid]", "%", 98]
]}

----------
tested on: NCI-H1770; experiment: Cell panel screen (CellTiter-Glo); format: cell-based, human; conditions: NCI-H1770 (Lung), 20 micromolar, 72 hrs

{"columns": ["molecule", "Percent Inhibition [%]"],
 "data": [
  ["COc1c(CC=C(C)C)cc2c(=O)c3c(O)cc(O)cc3oc2c1OC [gl-6]", 23],
  ["COc1cc(O)c2c(=O)c3ccc(O)c(O)c3oc2c1CC=C(C)C [gl-17]", 40],
  ["CCOC1C2C(=O)c3c(O)c4c(c(CC=C(C)C)c3O[C@@]23[C@H]2C[C@@H]1C(=O)[C@]3(C/C=C(/C)C(=O)O)OC2(C)C)OC(C)(CCC=C(C)C)C=C4 (some centres unmarked) [GB19]", 99],
  ["O=c1c2ccc(O)c(O)c2oc2cccc(O)c12 [gl-23]", -11],
  ["O=C1c2c(O)cc(O)cc2OC(c2ccc(O)c(O)c2)C1O (centres unmarked) [gl-34]", 0],
  ["O=c1c2cc(O)c(O)cc2oc2cc(O)cc(O)c12 [Ge-17]", 72],
  ["COc1c(CC=C(C)C)c(O)c2c(=O)c3ccc(O)c(O)c3oc2c1CC=C(C)C [gl-9]", 93],
  ["CC(C)=CCC[C@@]1(C)C=Cc2c(O)c3c(c(CC=C(C)C)c2O1)O[C@]12C(=C[C@@H]4C[C@H]1C(C)(C)O[C@@]2(C/C=C(/C)C(=O)O)C4=O)C3=O [GB11]", 98]
]}

----------
system: CW-2; assay: Cell panel screen (CellTiter-Glo); format: cell-based, human; conditions: CW-2 (Colon), 20 micromolar, 72 hrs
Percent Inhibition overview
property: Percent Inhibition

{"columns": ["molecule", "target_or_test_system", "property", "value_reported"],
 "data": [
  ["COc1c(CC=C(C)C)cc2c(=O)c3c(O)cc(O)cc3oc2c1O", "CW-2", "Percent Inhibition", "55%"],
  ["O=c1c2cc(O)ccc2oc2cccc(O)c12 [Gof3]", "CW-2", "Percent Inhibition", "39%"],
  ["CC(C)=CCC/C(C)=C/Cc1c(O)c(CC=C(C)C)c2c(c1O)C(=O)C1=C[C@@H]3C[C@H]4C(C)(C)O[C@@](C/C=C(/C)C(=O)O)(C3=O)[C@@]14O2", "CW-2", "Percent Inhibition", "99%"],
  ["COC(=O)C1OC(Oc2cc(O)c3c(c2)OC(c2ccc(O)c(O)c2)CC3=O)C(O)C(O)C1O (stereo not shown)", "CW-2", "Percent Inhibition", "1%"],
  ["COc1cc(O)c2c(=O)c3ccc(O)c(O)c3oc2c1CC=C(C)C", "CW-2", "Percent Inhibition", "96%"],
  ["C=C(C)C(O)Cc1c(O)cc2oc3cc(O)c(O)c(CC=C(C)C)c3c(=O)c2c1O (stereo not shown)", "CW-2", "Percent Inhibition", "68%"],
  ["COc1cc(O)c2c(=O)c3c(CC=C(C)C)cc(O)c(O)c3oc2c1CC=C(C)CCC=C(C)C", "CW-2", "Percent Inhibition", "97%"],
  ["O=c1c2ccc(O)c(O)c2oc2cccc(O)c12", "CW-2", "Percent Inhibition", "-3%"],
  ["CC(C)=CCc1c(O)cc2oc3cc(O)c(O)c(CCC(C)(C)O)c3c(=O)c2c1O", "CW-2", "Percent Inhibition", "95%"],
  ["CC1(C)C=Cc2c(cc(O)c3c(=O)c4ccc(O)c(O)c4oc23)O1", "CW-2", "Percent Inhibition", "95%"],
  ["CC(C)=CCc1c2c(c(O)c3c1O[C@]14C(=C[C@@H]5C[C@H]1C(C)(C)O[C@@]4(C/C=C(\\C)CO)C5=O)C3=O)C=CC(C)(C)O2", "CW-2", "Percent Inhibition", "99%"],
  ["CC1(C)C=Cc2c(cc(O)c3c(=O)c4cc5c(c(O)c4oc23)OC(C)(C)C=C5)O1", "CW-2", "Percent Inhibition", "17%"],
  ["O=C(c1ccc(O)c(O)c1)c1c(O)cc(O)cc1O", "CW-2", "Percent Inhibition", "-2%"],
  ["CC(C)=CCCC1(C)C=Cc2c(O)c3c(c(CC=C(C)C)c2O1)OC12C(=CC4CC1C(C)(C)OC2(CC=C(C)C(=O)O)C4=O)C3=O (mixture of isomers) [GB8]", "CW-2", "Percent Inhibition", "99%"],
  ["COc1c(CC=C(C)C)cc2c(=O)c3c(O)cc(O)cc3oc2c1OC", "CW-2", "Percent Inhibition", "51%"],
  ["CC(C)=CCCC1(C)C=Cc2c(O)c3c(c(CC=C(C)C)c2O1)OC12C(=CC4CC1C(C)(C)OC2(CC=C(C)C(=O)O)C4=O)C3=O (mixture of isomers) [GB14]", "CW-2", "Percent Inhibition", "98%"]
]}

----------
system: CCF-STTG1; assay: Cell panel screen (CellTiter-Glo); assay type: cell-based, human; settings: CCF-STTG1 (Brain), 20 micromolar, 72 hrs
Decide by Percent Inhibition: equal to or exceeding 40% means class 1, less means class 0.

{"columns": ["compound", "label_value"],
 "data": [
  ["O=c1c2ccc(O)c(O)c2oc2cccc(O)c12", "class 0"],
  ["C=C(C)C(O)Cc1c(O)cc2oc3cc(O)c(O)c(CC=C(C)C)c3c(=O)c2c1O (centres unmarked)", "class 1"],
  ["CC(C)=CCCC1(C)C=Cc2c(O)c3c(c(CC=C(C)C)c2O1)OC12C(=CC4CC1C(C)(C)OC2(CC=C(C)C(=O)O)C4=O)C3=O (mixture of isomers) [GB8]", "class 1"],
  ["O=C1CC(c2ccc(O)c(O)c2)Oc2cc(OC3OC(C(=O)O)C(O)C(O)C3O)cc(O)c21 (centres unmarked)", "class 0"],
  ["COc1cc(O)c2c(=O)c3ccc(O)c(O)c3oc2c1CC=C(C)C", "class 1"],
  ["COc1c(O)c(O)c2c(=O)c3c(CC=C(C)C)c(CC=C(C)C)c(O)c(O)c3oc2c1CC=C(C)C", "class 0"],
  ["CC(C)=CCc1c(O)cc2oc3cc(O)c(O)c(CCC(C)(C)O)c3c(=O)c2c1O", "class 1"],
  ["CC1(C)C=Cc2c(cc(O)c3c(=O)c4ccc(O)c(O)c4oc23)O1", "class 1"]
]}

----------
test system: NCI-H1770; assay: Cell panel screen (CellTiter-Glo); format: cell-based, human; conditions: NCI-H1770 (Lung), 20 micromolar, 72 hrs
Listing of recorded Percent Inhibition by entry.

{"columns": ["compound", "unit_annotation", "Percent Inhibition"],
 "data": [
  ["COc1cc(O)c2c(=O)c3cc(CC=C(C)C)c(O)c(O)c3oc2c1CC=C(C)C", "%", 75],
  ["CC1(C)C=Cc2cc3c(=O)c4c(O)cc(O)cc4oc3c(O)c2O1", "%", 38],
  ["COc1cc(O)c2c(=O)c3cc4c(c(O)c3oc2c1CC=C(C)C)OC(C)(C)C=C4", "%", 34],
  ["CC(C)=CCc1c(O)c(O)cc2oc3cc(O)cc(O)c3c(=O)c12", "%", 0],
  ["CCOC(=O)C1OC(Oc2cc(O)c3c(c2)OC(c2ccc(O)c(O)c2)CC3=O)C(O)C(O)C1O (centres unmarked)", "%", -10],
  ["CC(C)=CCCC1(C)C=Cc2c(O)c3c(c(CC=C(C)C)c2O1)OC12C(=CC4CC1C(C)(C)OC2(CC=C(C)C(=O)O)C4=O)C3=O (mixture of isomers) [GB8]", "%", 100],
  ["CC(C)=CCCC1(C)C=Cc2c(O)c3c(c(CC=C(C)C)c2O1)OC12C(=CC4CC1C(C)(C)OC2(CC=C(C)C(=O)O)C4=O)C3=O (mixture of isomers) [GB14]", "%", 97],
  ["CC(C)=CCc1c2c(c(O)c3c(=O)c4c(CC=C(C)C)c(O)c(O)cc4oc13)C=CC(C)(C)O2", "%", 75],
  ["CC(C)=CCC/C(C)=C/Cc1c(O)c(CC=C(C)C)c2c(c1O)C(=O)C1=C[C@@H]3C[C@H]4C(C)(C)O[C@@](C/C=C(/C)C(=O)O)(C3=O)[C@@]14O2", "%", 100],
  ["CC(C)=CCc1c(O)cc2oc3cc(O)c(O)c(CC=C(C)C)c3c(=O)c2c1O", "%", 98],
  ["O=C1c2c(O)cc(O)cc2OC(c2ccc(O)cc2)C1c1c(O)cc(O)c2c(=O)cc(-c3ccc(O)c(O)c3)oc12 (centres unmarked)", "%", -10],
  ["COc1ccc2c(=O)c3c(O)cc(O)cc3oc2c1OC", "%", -4],
  ["COC(=O)C1OC(Oc2cc(O)c3c(=O)cc(-c4ccc(O)cc4)oc3c2)C(O)C(O)C1O (centres unmarked)", "%", -1],
  ["O=C(c1ccc(O)c(O)c1)c1c(O)cc(O)cc1O", "%", -10]
]}
